Quick reference for pIC50 among some compounds
target: cGMP-specific 3',5'-cyclic phosphodiesterase PDE5 (Sus scrofa); assay: In vitro inhibition of PDE-V isolated from porcine pulmonary artery.
Keep it numeric: pIC50 is minus log10 of the concentration in mol/L.

# COMPOUND, READOUT, OBSERVED
records = [
    ("CCCNc1ccccc1-c1nc2ncccc2[nH]1", "pIC50", 4.59),
    ("CCCCCOc1ccccc1-c1nc2ncccc2[nH]1", "pIC50", 6.00),
    ("c1ccc(-c2nc3ncccc3[nH]2)c(OCC2CC2)c1", "pIC50", 5.22),
]

For record COc1ccccc1-c1nc2ccncc2[nH]1 the listed pIC50 is 4.38

For record ClCCCOc1ccccc1-c1nc2ncccc2[nH]1 the listed pIC50 is 5.70

For record Oc1ccccc1-c1nc2ncccc2[nH]1 [2-(3H-Imidazo[4,5-b]pyridin-2-yl)-phenol] the listed pIC50 is 4.43

====

Quick reference for pIC50 among some compounds
biological target: cGMP-specific 3',5'-cyclic phosphodiesterase PDE5 (Sus scrofa); experiment: In vitro inhibition of PDE-V isolated from porcine pulmonary artery.
Keep it numeric: pIC50 is minus log10 of the concentration in mol/L.

Solved cases below.
# COMPOUND, pIC50
rows = [
    ("OCCCOc1ccccc1-c1nc2ncccc2[nH]1", 4.62),
    ("CCOc1ccccc1-c1nc2ncccc2[nH]1", 4.74),
    ("COc1cc([S+](C)[O-])ccc1-c1nc2cnccc2[nH]1 (stereo not given)", 4.24),
    ("c1ccc(COc2ccccc2-c2nc3ncccc3[nH]2)cc1", 5.40),
    ("CCCCCOc1ccccc1-c1nc2ccncc2[nH]1", 6.00),
]

For record c1ccc(-c2nc3ncccc3[nH]2)c(OC2CCCC2)c1 the listed pIC50 is 4.82

For record CCCSc1ccccc1-c1nc2ncccc2[nH]1 the listed pIC50 is 4.62

For record CCCCCCOc1ccccc1-c1nc2ncccc2[nH]1 the listed pIC50 is 5.40

For record CCCOc1ccccc1-c1cn2cccnc2n1 the listed pIC50 is 4.48

For record CCCCOc1ccccc1-c1nc2ncccc2[nH]1 the listed pIC50 is 6.00
